- protocolText: Clearance in rat hepatocytes measured per 10^6 cells
- Format: ADME, cell-based, Hepatocyte
- particulars: read-out: CLH
Strictly below 6 µL/min/1e6 cells in hepatocyte CLint: YES. Otherwise: NO.

I wonder whether `OC[C@H]1CCN1c1nc(-c2cnn(C3CCNCC3)c2)cc(C(F)(F)F)n1` has hepatocyte CLint below 6 µL/min/1e6 cells. Can you tell?
YES

Determine whether this compound shows hepatocyte CLint lower than 6 µL/min/1e6 cells (ties excluded): `C[C@H]1CCN1c1nc(-c2cnn(CC(=O)N3CCNCC3)c2)cc(C(F)(F)F)n1`
YES

A record lists `C[C@H]1CCN1c1nc(-c2cnn(C3CN(C)C3)c2)cc(C(F)(F)F)n1` . Is its hepatocyte CLint below 6 µL/min/1e6 cells?
NO

hey, is hepatocyte CLint for `C[C@H]1CCN1c1nc(-c2cnn(CC(=O)NCCO)c2)cc(C(F)(F)F)c1C#N` lower than 6 µL/min/1e6 cells or not?
NO

Take the compound `C[C@H]1CCN1c1nc(-c2cnn(CC(=O)N3C[C@H](O)[C@@H](O)C3)c2)cc(C(F)(F)F)c1C#N` and say whether its hepatocyte CLint is less than 6 µL/min/1e6 cells.
YES
